# system tested: NAMPT (Homo sapiens, UniProt P43490)
# Sequence (P43490 whole entry): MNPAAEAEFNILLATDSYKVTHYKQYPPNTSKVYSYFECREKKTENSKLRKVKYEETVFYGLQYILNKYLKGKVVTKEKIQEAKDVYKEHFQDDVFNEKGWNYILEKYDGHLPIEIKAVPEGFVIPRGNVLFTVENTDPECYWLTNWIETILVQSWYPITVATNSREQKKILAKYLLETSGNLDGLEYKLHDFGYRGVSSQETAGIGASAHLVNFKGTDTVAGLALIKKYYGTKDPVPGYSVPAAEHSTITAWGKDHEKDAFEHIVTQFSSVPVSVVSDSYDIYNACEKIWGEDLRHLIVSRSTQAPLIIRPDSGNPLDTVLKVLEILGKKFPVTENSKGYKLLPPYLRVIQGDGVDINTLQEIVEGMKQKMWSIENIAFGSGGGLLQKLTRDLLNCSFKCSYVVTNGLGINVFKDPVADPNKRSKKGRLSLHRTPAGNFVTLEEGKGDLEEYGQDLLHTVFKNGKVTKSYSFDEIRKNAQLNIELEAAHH
# assay procedure: TR-FRET Binding Assay of NAMPT with PRPP
# cond: 2 nM NAMPT, 2 nM probe, 200 µM PRPP and 2.5 mM ATP, equilibrated 16 hours
pIC50: −log10 of the molar value.
recorded endpoint: pIC50

{"compound": "O=C(CN1CCCC1)N1CC[C@@H](Oc2ccc(NC(=O)N3CC(c4cccnc4)C3)cc2)C1 [Example 304]", "system tested": "NAMPT (Homo sapiens, UniProt P43490)", "pIC50": 9.46}
{"compound": "O=C(Nc1ccc(C2CCN(C(=O)c3nccs3)C2)cc1)N1CC(c2cccnc2)C1 (stereo not shown) [Example 267]", "system tested": "NAMPT (Homo sapiens, UniProt P43490)", "pIC50": 9.53}
{"compound": "O=C(Nc1ccc(OC2CN(C(=O)c3ccsc3)C2)cc1)N1CC(c2cccnc2)C1 [Example 146]", "system tested": "NAMPT (Homo sapiens, UniProt P43490)", "pIC50": 9.57}
{"compound": "O=C(CC1CCCC1)N1CC[C@@H](Oc2ccc(NC(=O)N3CC(c4cccnc4)C3)cc2)C1 [Example 300]", "system tested": "NAMPT (Homo sapiens, UniProt P43490)", "pIC50": 9.47}
{"compound": "O=C(CC1CCOCC1)N1CC(c2ccc(NC(=O)N3CC(c4cccnc4)C3)cc2)C1 [Example 100]", "system tested": "NAMPT (Homo sapiens, UniProt P43490)", "pIC50": 9.51}
{"compound": "O=C(CC1C[C@@H]2CC[C@H]1C2)N1CC(c2ccc(NC(=O)N3CC(c4cccnc4)C3)cc2)C1 (stereo partly shown) [Example 200]", "system tested": "NAMPT (Homo sapiens, UniProt P43490)", "pIC50": 9.42}

a: CCC(C)(C)C(=O)N1CCC(c2ccc(NC(=O)N3CC(c4cccnc4)C3)cc2)CC1 [Example 169]
b: CCC(C)CC(=O)N1CC(Oc2ccc(NC(=O)N3CC(c4cccnc4)C3)cc2)C1 (stereo not shown) [Example 121]
Which shows the larger pIC50 value: a or b ? To answer, give the label that identifies your chosen option.
a
(a: 9.52, b: 9.30)

1: CC[C@H](C)C(=O)N1CC(c2ccc(NC(=O)N3CC(c4cccnc4)C3)cc2)C1 [Example 110]
2: CCC(CC)CN1CC(c2ccc(NC(=O)N3CC(c4cccnc4)C3)cc2)C1 [Example 253]
Which shows the larger pIC50 value: 1 or 2 ? To answer, give the label that identifies your chosen option.
2

P: CC(C)CCC(=O)N1CCC(c2ccc(NC(=O)N3CC(c4cccnc4)C3)cc2)C1 (stereo not shown) [Example 275]
Q: O=C1CC[C@H](C(=O)N2CC[C@@H](Oc3ccc(NC(=O)N4CC(c5cccnc5)C4)cc3)C2)N1 [Example 305]
Which shows the larger pIC50 value: P or Q ? To answer, give the label that identifies your chosen option.
Q
